- Test system: SNB-75
- procedure.summary: NCI tumour cell line growth inhibition, 48 h
Structures can show the parent of a compound that is named as a salt. Active and inactive are the calls of the source. Cut-off read from the data, not from the text of the source: active = GI50 up to about 1.1 µM and inactive = higher.
Provide the reported GI50 of each item.

compound: CCOC(=O)c1cc(=O)c2cccc3c2n1CCS3
assayed.system: SNB-75
reported: > 100 µM (inactive)

compound: FC(F)(F)c1ccc2nc3n(c2c1)C(c1c(Cl)cccc1Cl)SC3 (stereo not given)
assayed.system: SNB-75
reported: 13 µM (inactive)

compound: O=C(NCCCCN(CCCNC(=O)C(F)(F)F)Cc1ccccc1)C(F)(F)F
assayed.system: SNB-75
reported: > 100 µM (inactive)

compound: CCOC(=O)/C=C(\C)c1ccc(C)cc1C
assayed.system: SNB-75
reported: 75.3 µM (inactive)

Okay, here is my list. What is GI50 for each of these?
1. C/C(=N\NC(=S)N(C)C)c1nc2cccnc2[nH]1
2. CN(C)CCC=C1c2ccccc2C=Cc2ccccc21 [CYCLOBENZAPRINE HYDROCHLORIDE]
3. O=C(O)C(Cc1c[nH]cn1)N1C(=O)c2ccccc2C1=O (stereo not given)
4. CC(C)N1CN(C(C(=O)N[C@@H]2C(=O)N3C2SC(C)(C)C3C(=O)O)c2ccc(O)cc2)CSC1=S (stereo not given in full)

Result string:
1: 3.18 µM (inactive); 2: 14.7 µM (inactive); 3: > 100 µM (inactive); 4: > 100 µM (inactive)

Okay, here is my list. What is GI50 for each of these?
1. CC(=O)N/N=C1\NC(=O)C[C@H]2[C@@H]3CC=C4C[C@@H](OC(C)=O)CC[C@]4(C)[C@H]3CC[C@]12C
2. COc1ccc(Nc2nc3ccc(C(F)(F)F)cc3nc2C(=O)O)cc1

Result string:
1: 20.9 µM (inactive); 2: 34.1 µM (inactive)

Recorded values, source ChEMBL document CHEMBL1201862.
